- Test system: Penicillinresistant S. aureus
- PROCEDURE_DETAILS: MIC, two-fold serial agar dilution in Mueller-Hinton agar, group (G+)-Ib
- Format: cell-based
- CONDITION_SET: Staphylococcus aureus, penicillin-resistant S. aureus, 5 strains, read-out: Geometric Mean of MIC, (G+)-Ib
ASSAY_METRIC: MIC (µg/mL)
Field format: number, assumed µg/mL, no unit text.

What does the data say about its MIC? Entry: CO/N=C(\C(=O)NC1C(=O)N2C(C(=O)[O-])=C(/C=C/C[n+]3ccccc3)CS[C@H]12)c1csc(N)n1 (stereo partly shown) [Compound I-1B]
0.52

What does the data say about its MIC? Entry: CO/N=C(\C(=O)NC1C(=O)N2C(C(=O)[O-])=C(/C=C/C[N+]3(C)CC=CC3)CS[C@H]12)c1csc(N)n1 (stereo partly shown) [Compound I-1F]
0.39

What does the data say about its MIC? Entry: C[N+]1(C/C=C/C2=C(C(=O)[O-])N3C(=O)C(NC(=O)/C(=N\OC4(C(=O)O)CCC4)c4csc(N)n4)C3SC2)CCCC1 (stereo not shown) [Compound I-5A]
4.7

What does the data say about its MIC? Entry: Nc1cc[n+](C/C=C/C2=C(C(=O)[O-])N3C(=O)C(NC(=O)/C(=N\OC4(C(=O)O)CCC4)c4csc(N)n4)C3SC2)cc1 (stereo not shown) [Compound I-5I]
4.7

What does the data say about its MIC? Entry: CC(C)(O/N=C(\C(=O)NC1C(=O)N2C(C(=O)[O-])=C(/C=C/C[n+]3ccccc3)CS[C@H]12)c1csc(N)n1)C(=O)O (stereo partly shown) [Compound I-4B]
15

What does the data say about its MIC? Entry: CO/N=C(\C(=O)NC1C(=O)N2C(C(=O)[O-])=C(/C=C/C[n+]3ccsc3SC)CS[C@H]12)c1csc(N)n1 (stereo partly shown) [Compound I-1G]
0.39

What does the data say about its MIC? Entry: Nc1nc(/C(=N/OC2(C(=O)O)CCC2)C(=O)NC2C(=O)N3C(C(=O)[O-])=C(/C=C/C[n+]4ccc5sc(N)nc5c4)CS[C@H]23)cs1 (stereo partly shown) [Compound I-5C]
4.4

Provenance of the data: patent US4486586A
